System: HL-60(TB) leukemia
assay summary: NCI tumour cell line growth inhibition, 48 h
Each entry below carries its recorded TGI.

CN(C)CC1CCCC(CN(C)C)C1OC(=O)c1ccccc1 (centres undefined)
> 100 µM
CC(=O)[C@@H](C)C(=O)N1C(=O)OC[C@@]12[C@@H]1CC[C@@H](C1)C2(C)C
> 100 µM
COc1c2c(cc3c1OCO3)[C@]13C=C[C@H](OC)C[C@H]1N(C2)CC3O (some centres undefined)
> 100 µM
CCc1cc(Cc2cc(CC)c(NC(=O)C(=O)CC(=O)c3sc(-c4cccnc4)nc3C)c(CC)c2)cc(CC)c1NC(=O)C(=O)CC(=O)c1sc(-c2cccnc2)nc1C
> 100 µM
CC12OC(C(=O)C13CC3)C1C(=O)c3ccc4c(ccc5ccccc54)c3C(=O)C12 (centres undefined)
> 100 µM

--- query ---
Return TGI (reported value) for this compound: CC(=O)O[C@H]1C(=O)[C@@]2(C)C(C(OC(=O)c3ccccc3)[C@]3(O)CC(OC(=O)C(O)C(NC(=O)c4ccc(C(F)(F)F)cc4)c4ccccc4)C(C)=C1C3(C)C)[C@]1(OC(C)=O)CO[C@@H]1C[C@@H]2O (some centres undefined)
> 37.5 µM

----------
Each entry below carries its recorded TGI.
System: RXF 393 renal
assay summary: NCI tumour cell line growth inhibition, 48 h

Guide cases for TGI, answers given:
CN(C)CC1CCCC(CN(C)C)C1OC(=O)c1ccccc1 (configuration not stated)
> 100 µM
S=c1ssc(N2CCOCC2)c1Cl
> 100 µM
O=C(c1cccc2ccccc12)N1CCC(C2CCN(C(=O)c3cccc4ccccc34)CC2)CC1
> 100 µM
Cc1[nH]c(=O)nc2[nH][nH]c(=O)c12
> 100 µM
COC(=O)CC1N=C(NC#N)N(CCc2c[nH]c3ccccc23)C1=O (configuration not stated)
> 100 µM

Return TGI (reported value) for this compound: `O=C(Nc1n[nH]c2cc(-c3ccccc3)ccc12)C1CC1`
> 25 µM

Return TGI (reported value) for this compound: `N#C/C(=C/NC(N)=S)C(N)=O`
> 100 µM

Return TGI (reported value) for this compound: `Cc1ccc(S(=O)(=O)N/N=C2/CCCOC2)cc1`
> 100 µM

Return TGI (reported value) for this compound: `O=c1cc(N2CCCC2)[nH]c(=O)n1-c1cccc(Cl)c1`
> 100 µM

Return TGI (reported value) for this compound: CC1CCCCNC1=S (configuration not stated)
> 10 µM

Return TGI (reported value) for this compound: NNC(=S)N/N=C(/C(=O)Nc1ccc(Cl)c(Cl)c1)C(C1OC(=O)c2ccccc21)[N+](=O)[O-] (configuration not stated)
> 100 µM

Return TGI (reported value) for this compound: `CCOC(=O)Cc1nc2cc(F)c(F)cc2[nH]c1=O`
> 100 µM

----------
System: SW-620 colon
assay summary: NCI tumour cell line growth inhibition, 48 h
Each entry below carries its recorded TGI.

Guide cases for TGI, answers given:
O=C1c2ccccc2C(=O)N1CCCCNOCCCN1C(=O)c2ccccc2C1=O
> 100 µM
CCCc1c(O)nc(Nc2nc3ccccc3[nH]2)[nH]c1=O
> 100 µM
CCOC(=O)C1CCN(S(=O)(=O)/N=C2/NC(=O)NC2=C(Cl)Cl)CC1
4.37 µM

Return TGI (reported value) for this compound: `Cc1cc(NS(=O)(=O)c2ccc(Nc3c4ccccc4nc4c(C(=O)N5CCN(CCO)CC5)cccc34)cc2)no1`
> 100 µM
